- Assay name: AUC in Sprague-Dawley rat at 2.2 mg/kg administered via oral gavage measured up to 4 hrs by LC/MS/MS analysis
- Assay type: ADME, organism-based
- Design: time < 4 hr, dose 2.2 mg/kg, route oral
- Test settings: in vivo
Experimental endpoint: AUC at 4 h (ng·h/mL)

P = C/C(=C\c1cc(F)c(Oc2ccc(S(=O)(=O)NCCP(=O)(O)O)cc2)c(F)c1)C(=O)N=C(N)N
Q = CN1Cc2c(Cl)cc(Cl)cc2C(c2cccc(NC(=O)N[C@@H](CC(=O)O)C(=O)O)c2)C1 (some centres not stated)
Input: Lab note: record which item had the higher AUC at 4 h, P or Q . // return label of chosen record
Output: P
(P: 23 ng·h/mL, Q: 5 ng·h/mL)
